biological target: Bs-CspB (Bacillus subtilis, UniProt P32081 1-67); experiment: tryptophan fluorescence quenching
readout_label: Kd (µM)
Just the number please, in µM, no unit attached.

Recall and state the measured Kd for TATTGGT (ssDNA) [Y-box7] . 0.53
